The origin of these recorded values is patent US9694016B2.

- Tested System: b-Raf (V600E) (Homo sapiens (Human), UniProt P15056, V600E)
- Sequence (P15056 whole entry V600E): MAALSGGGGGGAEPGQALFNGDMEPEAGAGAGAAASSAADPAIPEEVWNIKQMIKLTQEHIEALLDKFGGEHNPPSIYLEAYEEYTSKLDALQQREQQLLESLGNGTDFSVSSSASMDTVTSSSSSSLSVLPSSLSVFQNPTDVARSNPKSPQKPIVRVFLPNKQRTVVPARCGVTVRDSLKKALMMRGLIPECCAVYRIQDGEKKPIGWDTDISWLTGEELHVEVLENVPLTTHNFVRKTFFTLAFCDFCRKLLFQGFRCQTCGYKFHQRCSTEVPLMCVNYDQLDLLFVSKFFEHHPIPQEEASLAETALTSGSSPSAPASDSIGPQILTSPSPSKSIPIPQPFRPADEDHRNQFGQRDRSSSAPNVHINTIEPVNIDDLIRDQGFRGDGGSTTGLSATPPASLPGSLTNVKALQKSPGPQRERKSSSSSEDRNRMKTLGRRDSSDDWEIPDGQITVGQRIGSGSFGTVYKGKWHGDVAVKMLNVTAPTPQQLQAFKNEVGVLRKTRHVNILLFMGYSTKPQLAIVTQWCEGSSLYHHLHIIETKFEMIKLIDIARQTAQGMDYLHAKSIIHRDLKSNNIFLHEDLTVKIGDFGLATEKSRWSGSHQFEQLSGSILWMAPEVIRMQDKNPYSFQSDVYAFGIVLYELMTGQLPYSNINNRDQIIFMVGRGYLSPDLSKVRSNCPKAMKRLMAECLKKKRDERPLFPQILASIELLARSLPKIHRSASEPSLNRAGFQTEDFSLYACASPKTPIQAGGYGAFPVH
- Study Conditions: read-out: b-Raf IC-50; AlphaScreen, 60 min pre-incubation, 3 hours reaction
Readout Kind: IC50 (nM)
Answers are plain numbers, in nM.

Example entries and their recorded answers appear below.
>>> print(df.to_string())
                                   molecule  readout_kind  quantitative_readout
0  Cc1ccc(NC(=O)c2ccnc(C(C)(C)F)c2)cc1-c1cc(N2CCOCC2)c(=O)n(C)n1 [Example 654]          IC50                   1.7
1  Cc1ccc(NC(=O)c2ccnc(C(C)C)c2)cc1-c1cc(N2CCOCC2)nc(N2CC(O)C2)n1 [Example 771]          IC50                   2.5
2  CCNc1nc(-c2cc(NC(=O)c3ccnc(C(C)(C)C#N)c3)ccc2C)cc(N2CCOCC2)n1 [Example 717]          IC50                   2.9
3  Cc1ncc(NC(=O)c2ccnc(C(C)(C)F)c2)cc1-c1cc(N2CCOCC2)c(=O)n(C)n1 [Example 677]          IC50                  12.7
4  Cc1ccc(NC(=O)c2cnnc(C(C)(C)C#N)c2)cc1-c1cc(N2CCOCC2)n(C)c(=O)c1 [Example 489]          IC50                   2.4
5  Cc1ncc(NC(=O)c2cccc(C(F)(F)F)c2)cc1-c1cc(N2CCOCC2)nc(N2CCNCC2)n1 [Example 775]          IC50                    20

// query Enter reported IC50 observed with b-Raf (V600E) (Homo sapiens (Human), UniProt P15056, V600E) for CCNc1nc(-c2cc(NC(=O)c3ccnc(C4COC4)c3)cnc2C)cc(N2CCOCC2)n1 [Example 729]
// result 17.7
